System: SNB-75 CNS
test: NCI tumour cell line growth inhibition, 48 h
readout: TGI

Known TGI results, listed for orientation:
Cc1ccc(S(=O)(=O)N/N=C2\CC3C4CCC3C2C4)cc1 (stereo not drawn) = > 100 µM
Fc1ccc(C(OCCN2CCC3CCC(C2)N3C/C=C/c2cccnc2)c2ccc(F)cc2)cc1 (stereo not drawn) = 27.9 µM

The record that follows has no TGI shown yet.
Exam item: Which TGI value belongs to CCC(=O)Oc1ccc(/C=N/NC(N)=S)nc1 ?
Marked response: > 100 µM

* * *

Tested on: NCI-H522 lung
test: NCI tumour cell line growth inhibition, 48 h
readout: TGI

NS(=O)(=O)c1ccc(N=Nc2c(=O)[nH]c3ccc4[nH]cccc4c23)cc1 = 0.818 µM
C[C@]12CC[C@H]3[C@@H](CCC4=CC(=O)CC[C@@]43C)[C@@H]1CC[C@@H]2OC(=O)c1cccc2c(=O)c3ccccc3[nH]c12 = > 100 µM

Exam item: Need TGI of CC(C)C(=O)CP(=O)(O)O , thanks.
Marked response: > 100 µM

Exam item: Find the recorded TGI belonging to N#CC(CC(=O)O)=C(c1ccccc1)c1ccccc1 and report it.
Marked response: > 100 µM

Exam item: Entry under review: O=c1ccc2nc3ccc(O)cc3oc-2c1 . Reported TGI?
Marked response: > 73.5 µM

Exam item: Endpoint output: TGI of CC1(C)N=C(N)N=C(N)N1CCCCc1ccccc1 . Value?
Marked response: 37.4 µM

Exam item: So what does the record say about TGI for COC1=CC(=O)C2C(C1=O)[C@@H]1c3ccccc3OC[C@H]21 (stereo partly specified) ?
Marked response: > 100 µM

Exam item: Which TGI value is on record for C#CC1(O)CC(c2ccccc2)N(C)C(c2ccccc2)C1 (stereo unspecified) ?
Marked response: > 100 µM

Exam item: So what's the measured TGI for this one? NNC(=O)N/N=C1/C(=O)N(c2ccc(Cl)c(Cl)c2)C(=O)C(=O)C1c1nc2ccccc2o1 (stereo unspecified)
Marked response: > 100 µM

Exam item: Looking for the measured TGI of N#Cc1c(Nc2ccccc2)[n+]([O-])c2ccc(Cl)cc2[n+]1[O-] , can you help?
Marked response: 6.49 µM

Exam item: I am curious: what TGI value has been reported for CN(C)c1ccc(/C=N/NC(=O)c2cnc3ccccc3c2)cc1 ?
Marked response: > 100 µM

* * *

Test system: SF-268 CNS
test: NCI tumour cell line growth inhibition, 48 h
readout: TGI

# example entries with known answers
COc1ccc(-c2cc3c(N)ncnc3o2)cc1 = > 25 µM
CN1C(=O)C(C)(C)Oc2c(-c3cn(C)c(=O)c4[nH]ccc34)cc(S(C)(=O)=O)cc21 = > 100 µM
O=C(OCc1ccccc1)c1ccccc1-c1c2ccc(=O)cc-2oc2cc(OCc3ccccc3)ccc12 = > 100 µM
Cc1cc2nc3c(C#N)c4c(c(Nc5ccc(Cl)cc5)n3c2cc1C)CCC4 = 33.6 µM

Exam item: Give TGI (SF-268 CNS) of the following molecule: CC(=O)Nc1ccc(OCC(O)CO)cc1 (configuration not stated)
Marked response: > 100 µM

Exam item: // fetch SF-268 CNS TGI for CC1OC(n2cnc3c(N)nc(Cl)nc32)C(C)(O)C1O (configuration not stated)
Marked response: > 25 µM

Exam item: Notebook entry, SF-268 CNS assay: TGI of CCN(CC)c1ccc2cc(-c3csc(-c4ccc(N(C)C)cc4)n3)c(=O)oc2c1 = ?
Marked response: > 100 µM
